Tested on: MCF-7 Cell line
Counter-ions that a name gives are not always drawn.
The entries below come with measured GI50 values attached.
Value expressed in µM; do not type the unit.

Report GI50 for COc1cc(CN2CCOCC2)cc2[nH]c(=O)c3c(c12)NCCC3 [Example 74, dihydrochloride] please.
45

Note, next up: COc1cccc2[nH]c(=O)c3c(c12)NCCC3.Cl [Example 2, hydrochloride]
51

###

Molecular target: PARP-1 enzyme (Homo sapiens (Human), UniProt P09874)
Sequence (P09874 whole entry): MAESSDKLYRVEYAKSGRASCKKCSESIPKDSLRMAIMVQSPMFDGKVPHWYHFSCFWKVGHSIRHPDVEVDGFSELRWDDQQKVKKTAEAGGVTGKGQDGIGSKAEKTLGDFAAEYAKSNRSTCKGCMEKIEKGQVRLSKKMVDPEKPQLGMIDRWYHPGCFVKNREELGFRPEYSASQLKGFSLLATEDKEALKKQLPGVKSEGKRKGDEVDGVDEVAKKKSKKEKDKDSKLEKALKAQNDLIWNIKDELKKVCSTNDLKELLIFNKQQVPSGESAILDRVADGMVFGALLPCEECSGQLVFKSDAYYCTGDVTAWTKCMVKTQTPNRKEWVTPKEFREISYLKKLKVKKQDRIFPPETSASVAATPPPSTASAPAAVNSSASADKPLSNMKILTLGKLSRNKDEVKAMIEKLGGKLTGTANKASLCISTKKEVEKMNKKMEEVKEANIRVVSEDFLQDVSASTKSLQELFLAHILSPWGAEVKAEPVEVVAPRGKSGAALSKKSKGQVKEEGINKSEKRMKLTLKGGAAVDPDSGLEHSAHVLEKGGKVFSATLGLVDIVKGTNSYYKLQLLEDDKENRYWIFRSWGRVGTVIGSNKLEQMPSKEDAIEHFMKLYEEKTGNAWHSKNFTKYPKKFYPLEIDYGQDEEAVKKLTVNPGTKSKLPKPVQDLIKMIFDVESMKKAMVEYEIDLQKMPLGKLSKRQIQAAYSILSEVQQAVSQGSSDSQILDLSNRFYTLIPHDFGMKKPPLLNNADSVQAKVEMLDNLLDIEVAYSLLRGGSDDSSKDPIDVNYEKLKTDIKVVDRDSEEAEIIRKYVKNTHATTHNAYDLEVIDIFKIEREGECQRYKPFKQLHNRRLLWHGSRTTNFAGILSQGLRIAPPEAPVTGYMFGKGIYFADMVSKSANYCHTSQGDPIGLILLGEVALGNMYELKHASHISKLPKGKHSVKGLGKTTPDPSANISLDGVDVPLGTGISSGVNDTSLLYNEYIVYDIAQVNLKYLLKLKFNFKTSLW
Test: Poly(ADP-ribose)polymerase [PARP-1] enzyme inhibitory activity (Trevigen PARP Assay kit)
Format: biochemical
Conditions: read-out: PARP-1 Inhibitory activity IC50
Counter-ions that a name gives are not always drawn.
PARAMETER MEASURED: IC50
Include the unit right after the number.

Some solved entries appear below for comparison.
CCN(CC)Cc1ccc2c3c(c(=O)[nH]c2c1)CCCN3 [Example 42, dihydrochloride] :: 220 nM
CN(C)Cc1ccc2c3c(c(=O)[nH]c2c1)CCCN3C [Example 66, dihydrochloride] :: 90 nM
O=c1[nH]c2ccc(OCCN3CCOCC3)cc2c2c1CCCN2 [Example 27, dihydrochloride] :: 2640 nM

Param readout= IC50; system= PARP-1 enzyme (Homo sapiens (Human), UniProt P09874); entry= CCCNCc1ccc2c3c(c(=O)[nH]c2c1)CCCN3 [Example 46, dihydrochloride] ; returns value.
590 nM

How about O=c1[nH]c2ccc(OCCCCN3CCCCC3)cc2c2c1CCCN2 [Example 29, dihydrochloride] ?
2850 nM

Check COc1cc(CN(C)C2CCCC2)cc2[nH]c(=O)c3c(c12)NCCC3 [Example 92, dihydrochloride] too.
190 nM

Also, CCNCc1cc(OC)c2c3c(c(=O)[nH]c2c1)CCCN3 [Example 75, dihydrochloride] please.
50 nM

Then CCN(C)Cc1ccc2c3c(c(=O)[nH]c2c1)CCCN3C [Example 71, dihydrochloride] ?
3000 nM

###

Target: PARP-1 enzyme (Homo sapiens (Human))
Experiment: Poly(ADP-ribose)polymerase [PARP-1] enzyme inhibitory activity (Trevigen PARP Assay kit)
Assay type: biochemical
Details: read-out: PARP-1 Inhibitory activity IC50
Method: The activity of the compounds according to the present invention to inhibit the PARP-1 enzyme was examined using a PARP Assay kit (4671-096-K) purchased from Trevigen. […] Histone was coated on 384-well plate, which is a small volume PS plate (784101) of Greiner Bio-One, and left at 25° C. for 2 hours. […] The amount of histone ribosylation formed by PARP-1 enzyme was quantified at 450 nm using Wallac EnVision™ (PerkinElmer Oy, Turku, Finland).
Counter-ions that a name gives are not always drawn.
PARAMETER MEASURED: pIC50
Keep it numeric: pIC50 is minus log10 of the concentration in mol/L.

Please review the following examples before continuing.
CN(C)CCCOc1ccc2c3c(c(=O)[nH]c2c1)CCCN3 [Example 36, dihydrochloride] :: 5.52
COc1cc(CN2CCC(N3CCOCC3)CC2)cc2[nH]c(=O)c3c(c12)NCCC3 [Example 108, trihydrochloride] :: 6.85

Reported pIC50 for PARP-1 enzyme (Homo sapiens (Human)), given CC(C)NCc1ccc2c3c(c(=O)[nH]c2c1)CCCN3 [Example 45, dihydrochloride] ?
6.59

###

Biological target: PARP-1 enzyme (Homo sapiens (Human), UniProt P09874)
Assay: Poly(ADP-ribose)polymerase [PARP-1] enzyme inhibitory activity (Trevigen PARP Assay kit)
Format: biochemical
Settings: PARP-1 enzyme, histone ribosylation, 450 nm; read-out: PARP-1 Inhibitory activity IC50
Structures can show the parent of a compound that is named as a salt.
Threshold check on IC50: strictly below 0.5 µM is 1; on or above 0.5 µM is 0.

Example entries and their recorded answers appear below.
CN(C)CCN(C)Cc1ccc2c3c(c(=O)[nH]c2c1)CCCN3 [Example 54, trihydrochloride] :: 0
COc1cc(CN(C)CCCl)cc2[nH]c(=O)c3c(c12)NCCC3 [Example 85, dihydrochloride] :: 1
CCCOc1cc(CN(C)C)cc2[nH]c(=O)c3c(c12)NCCC3 [Example 110, dihydrochloride] :: 1
CCOc1cc(CNC)cc2[nH]c(=O)c3c(c12)NCCC3 [Example 103, dihydrochloride] :: 1

Hi there! Is IC50 for CN1CCC(Oc2ccc3[nH]c(=O)c4c(c3c2)N(C)CCC4)CC1 [Example 14, dihydrochloride] below 0.5 µM, do you know?
0

Here is the next molecule: CCOc1cc(CN2CCOCC2)cc2[nH]c(=O)c3c(c12)NCCC3 [Example 101, dihydrochloride]
0

Next molecule up: COc1cccc2[nH]c(=O)c3c(c12)NCCC3.Cl [Example 2, hydrochloride]
0

Now give it for CN1CCCc2c1c1cc(O)ccc1[nH]c2=O [Example 10, hydrochloride] too.
0

Follow-up entry: O=c1[nH]c2ccc(OCCc3ccccc3)cc2c2c1CCCN2 [Example 25, dihydrochloride]
0

Now give it for CN1CCCc2c1c1ccc(CN3CCCCC3)cc1[nH]c2=O [Example 69, dihydrochloride] too.
0

Request: COCCOc1cc(CN(C)C)cc2[nH]c(=O)c3c(c12)NCCC3 [Example 116, dihydrochloride]
1

Try CN1CCCc2c1c1ccccc1[nH]c2=O [Example 7, hydrochloride] next.
0

And what about the molecule CN(C)CCc1ccc2[nH]c(=O)c3c(c2c1)NCCC3 [Example 31, dihydrochloride] ?
0

Similarly, O=c1[nH]c2ccc(OCCO)cc2c2c1CCCN2 [Example 24, hydrochloride] ?
0

Also check CCOc1cc(CN)cc2[nH]c(=O)c3c(c12)NCCC3 [Example 113, dihydrochloride]
1

Same read-out for COc1ccc2[nH]c(=O)c3c(c2c1)N(C)CCC3 [Example 8, hydrochloride] ?
0

Also, CC[N+]1(CC)CCN(CCOc2ccc3[nH]c(=O)c4c(c3c2)NCCC4)CC1 please.
0

Next molecule: O=c1[nH]c2cc(CNCC(F)(F)F)ccc2c2c1CCCN2 [Example 62, dihydrochloride]
0

Also need COCCOc1cc(CN2CCOCC2)cc2[nH]c(=O)c3c(c12)NCCC3 [Example 117, dihydrochloride] , thanks.
0

Another: COc1cc(CO)cc2[nH]c(=O)c3c(c12)NCCC3 [Example 105, hydrochloride]
1

Ok, now COCCOc1ccc2[nH]c(=O)c3c(c2c1)NCCC3 [Example 18, hydrochloride]
0

Request: CCN1CCCc2c1c1cc(OC)ccc1[nH]c2=O [Example 9, hydrochloride]
0

Proceed to CCCN1CCCc2c1c1cc(OC)ccc1[nH]c2=O [Example 6, hydrochloride]
0

What do you have for CN(C)c1ccc2c3c(c(=O)[nH]c2c1)CCCN3 [Example 37, hydrochloride] ?
0

// query: O=c1[nH]c2cc(Cn3cccc3)ccc2c2c1CCCN2 [Example 65, hydrochloride]
0

Also check COc1ccc2c3c(c(=O)[nH]c2c1)CCCN3 [Example 1, hydrochloride]
0
